Data provenance: patent US20170305943A1

- Test system: Clostridium difficile (Isolate ID ATCC 9689)
- ASSAY PROTOCOL: Bacterial Assay: Determination of Antibacterial Activity (MIC, broth microdilution or agar dilution)
- Assay type: cell-based
- EXPERIMENTAL CONTEXT: Clostridioides difficile, ATCC9689, 48 h, read-out: C. difficile MIC Activity Range
Can you tell me MIC for the items I'm about to list?

The molecule listed as NC(=O)c1c(F)ccc(OCCOCCOc2ccc(OC(F)(F)F)cc2)c1F [Compound 145] has a reported MIC of < 1.01 µg/mL

The molecule listed as Cc1cc(CNC(=O)OCC(Oc2ccc(F)c(C(N)=O)c2F)c2nc(-c3ccc(C(F)(F)F)cc3)c(Br)o2)nn1C (stereo not shown) [Compound 88] has a reported MIC of 1 to 4 µg/mL

The molecule listed as NC(=O)c1c(F)ccc(OCc2nc(-c3ccc(OC(F)(F)F)cc3)c(Br)s2)c1F [Compound 105] has a reported MIC of < 1.01 µg/mL

The molecule listed as CC(=O)OCC(Oc1ccc(F)c(C(N)=O)c1F)c1nc(-c2ccc(C(F)(F)F)cc2)c(Br)o1 (stereo not shown) [Compound 31] has a reported MIC of < 1.01 µg/mL

The molecule listed as Cc1nnc(CNC(=O)OCC(Oc2ccc(F)c(C(N)=O)c2F)c2nc(-c3ccc(C(F)(F)F)cc3)c(Br)o2)o1 (stereo not shown) [Compound 65] has a reported MIC of 1 to 4 µg/mL

The molecule listed as NC(=O)c1c(F)ccc(OCCOCCOc2ccc(C(F)(F)F)cc2)c1F [Compound 146] has a reported MIC of < 1.01 µg/mL

The molecule listed as NC(=O)c1c(F)ccc(OCc2nc(-c3ccc(Cl)cc3)c(Br)o2)c1F [Compound 104] has a reported MIC of < 1.01 µg/mL

The molecule listed as CN(CCNC(=O)OCC(Oc1ccc(F)c(C(N)=O)c1F)c1nc(-c2ccc(C(F)(F)F)cc2)c(Br)o1)C(=O)OC(C)(C)C (stereo not shown) [Compound 56] has a reported MIC of 1 to 4 µg/mL

The molecule listed as CNC(=N)c1cccc(OCc2nc(-c3ccc(Cl)cc3)ns2)c1F [Compound 205] has a reported MIC of 4 to 16 µg/mL

The molecule listed as COc1ncc(-c2csc(COc3ccc(F)c(C(N)=O)c3F)n2)s1 [Compound 207] has a reported MIC of 1 to 4 µg/mL

The molecule listed as CN(CCCCOc1ccc(OC(F)(F)F)cc1)c1ccc(F)c(C(N)=O)c1F [Compound 152] has a reported MIC of < 1.01 µg/mL

The molecule listed as NC(=O)c1c(F)ccc(OCCCCNc2ccc(OC(F)(F)F)cc2)c1F [Compound 148] has a reported MIC of < 1.01 µg/mL

The molecule listed as CCCCCCCCCNc1ccc(F)c(C(N)=O)c1F [Compound 123, 2,6-difluoro-3-(nonylamino)benzamide] has a reported MIC of 1 to 4 µg/mL

The molecule listed as NC(=O)c1c(F)ccc(OCCCCCOc2ccc(C(F)(F)F)cc2)c1F [Compound 132] has a reported MIC of < 1.01 µg/mL

The molecule listed as Cc1nn(C)cc1CNC(=O)OCC(Oc1ccc(F)c(C(N)=O)c1F)c1nc(-c2ccc(C(F)(F)F)cc2)c(Br)o1 (stereo not shown) [Compound 81] has a reported MIC of < 1.01 µg/mL

The molecule listed as N/C(=N\O)c1c(F)ccc(OCc2nc(-c3ccc(OC(F)(F)F)cc3)ns2)c1F [Compound 119] has a reported MIC of 1 to 4 µg/mL
